Molecular target: Muscarinic acetylcholine receptor (Homo sapiens) (UniProt P20309+P08173+P11229+P08172+P08912);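 further: blockade of Ca2+-dependent contraction driven by muscarinic receptors in longitudinal smooth muscle strips of guinea pig ileum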
Settings: Cavia porcellus
Description: Inhibition of muscarinic receptor mediated [Ca2+] dependent contraction of guinea pig ileal longitudinal smooth muscle.
Test Readout: ID50 (nM)

In the examples that follow, each entry is paired with its recorded ID50.
Molecule	Reported Result
CO/C(O)=C1\C(C)=NC(C)=C(C(=O)OC(C)C)C1C1=CC=CN(C(=O)Oc2ccccc2)C1 (stereo not given)	900
COC(=O)N1C=CC=C(C2C(C#N)=C(C)NC(C)=C2C#N)C1	33900
COC(=O)N1C=CC=C(C2C(C(=O)OCC(C)C)=C(C)N=C(C)/C2=C(/O)OC)C1 (stereo not given)	31

[A] COC(=O)N1C=CC(C2C(C(=O)OCC(C)C)=C(C)N=C(C)/C2=C(/O)OC)=CC1 (stereo not given)
[B] COC(=O)N1C=CC=C(C2C(C#N)=C(C)N=C(C)/C2=C(/O)OC)C1 (stereo not given)
// query Given A and B , report the one with the higher recorded ID50. Write the label of whichever entry you select.
// result B
(B: 51600 nM, A: 1760 nM)
